biological target: 5-hydroxytryptamine receptor 7 (Homo sapiens, UniProt P34969)
Sequence (P34969 whole entry): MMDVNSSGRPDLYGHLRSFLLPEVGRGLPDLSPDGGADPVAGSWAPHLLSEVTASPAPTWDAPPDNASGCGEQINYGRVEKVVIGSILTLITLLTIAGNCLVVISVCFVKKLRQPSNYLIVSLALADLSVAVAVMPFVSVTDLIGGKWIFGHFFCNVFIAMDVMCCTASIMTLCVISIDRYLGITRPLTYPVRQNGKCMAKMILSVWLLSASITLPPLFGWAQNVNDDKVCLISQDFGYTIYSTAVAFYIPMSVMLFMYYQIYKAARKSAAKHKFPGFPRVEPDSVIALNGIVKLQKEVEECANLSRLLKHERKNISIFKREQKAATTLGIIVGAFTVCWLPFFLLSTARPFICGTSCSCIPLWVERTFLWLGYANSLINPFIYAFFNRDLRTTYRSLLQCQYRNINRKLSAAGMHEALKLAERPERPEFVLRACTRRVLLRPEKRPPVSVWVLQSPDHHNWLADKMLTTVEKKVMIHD
# maps each entry to its pKi
Note on pKi: it is the negative log10 of concentration, concentration in mol/L.

These solved cases illustrate the format of a correct answer.
N#Cc1ccc(CNC(=O)CCOCCN2CCN(c3ncccc3-c3ccc(F)cc3)CC2)cc1 7.27
COc1ccc(-c2ccccc2N2CCN(CCCCCC(=O)N[C@H](C)c3ccccc3)CC2)cc1 7.94

We next turn to a different molecule, shown below.
// pKi lookup, molecule = `O=C(CCOCCN1CCN(c2cccnc2-c2ccc(F)cc2)CC1)NCc1ccc(C(F)(F)F)cc1` , result: 6.60

----------
assay: Retention factor, logKw of compound in MeOH/0.01 M phosphate buffer at pH 7.4 by RP-HPLC method; format: physicochemical
property-measured: logKw
Just the number, please.

Here is how some molecules turned out for logKw.
COc1ccc(-c2ccccc2N2CCN(CCCCCC(=O)N[C@@H](C)c3ccc(C#N)cc3)CC2)cc1 0.59
C[C@@H](NC(=O)CCCCCN1CCN(c2ccccc2-c2ccccc2)CC1)c1ccccc1 0.75

The molecule listed as `N#Cc1ccc(CNC(=O)CCOCCN2CCN(c3ccccc3-c3ccccc3)CC2)cc1` shows logKw equal to 0.41

Query `C[C@@H]1CN(c2ccccc2-c2ccccc2)CCN1CCCCCC(=O)NCc1ccccc1` yields logKw of 0.58

The values you see were collected from ChEMBL document CHEMBL3856221.
